Ref: PubChem BioAssay (NCI)

# System: EKVX NSCLC
# assay-details: NCI-60 one-dose screen, 48 h (100 = growth as untreated, 0 = no growth, -100 = all killed)
# experimental-conditions: 10 µM unless noted
This is part of a sample that, as a whole, favours compounds with a hit. Of some 83,000 tested, about 20% had one in any assay.
Please provide measured growth for the entries that follow.
Give bare numbers, in %.

Known results for compounds:
| compound | growth / % |
| --- | --- |
| C/C(=N\O)[C@H]1C[C@]23CC[C@]4(C)[C@H](CC[C@@H]5[C@@]6(C)CC/C(=N/O)C(C)(C)[C@@H]6CC[C@]54C)[C@H]2[C@H](C)C1(C)OC3 | 70.9 |
| C=CCn1c(SCC(=O)Nc2ccc(C(=O)/C=C/c3cccc([N+](=O)[O-])c3)cc2)nnc1-c1c[nH]c2ccccc12 | 89.1 |
| COc1ccc(C(=O)Nc2ncc(Cc3ccccc3Cl)s2)cc1 | 41.7 |

Parameters: items (list). Returns: growth for each item.
1. COc1cc(-c2nnc(SCc3ccc(O)c4ncccc34)n2-c2ccccc2)cc(OC)c1OC
2. O=C1CCC(N2C(=O)c3ccc(NS(=O)(=O)c4ccccc4OC(F)(F)F)cc3C2=O)C(=O)N1 (centres undefined)
3. COc1cc(OC)c(S(N)(=O)=O)cc1C(=O)/C=C/c1ccc(C)cc1

Result:
[4.34, 78.8, 45.6]

----------
# Tested on: UACC-62 melanoma
# assay-details: NCI-60 one-dose screen, 48 h (100 = growth as untreated, 0 = no growth, -100 = all killed)
# experimental-conditions: 10 µM unless noted
About 83,000 compounds went through this panel and 20% of them were active in at least one assay; those are over-represented in the sample as a whole.
With a cut-off of 50%, any growth strictly below it is called label 1; any growth meeting it or above is called label 0.

| molecule | experimental-target | label-class |
| --- | --- | --- |
| COc1cc2nc(Cl)nc(Nc3cccc(C4=Nc5c(N)nc(N)nc5NC(c5ccc(F)cc5)C4)c3)c2cc1OC (stereo not given) | UACC-62 melanoma | label 0 |
| C#CCn1cccc1CNc1ccc(OC)cc1 | UACC-62 melanoma | label 1 |
| COc1cc(OC)c(S(N)(=O)=O)cc1C(=O)/C=C/c1ccc(Cl)cc1 | UACC-62 melanoma | label 1 |
| O=[N+]([O-])c1cc(/C=N/Nc2nc(N/N=C/c3ccc(Cl)c([N+](=O)[O-])c3)nc(N3CCCCC3)n2)ccc1Cl | UACC-62 melanoma | label 1 |

Request: Report whether reported growth is lower than 50% (strictly) for `O=C(CCn1c[n+](CC(=O)c2ccc(-c3ccccc3)cc2)c2ccccc21)Nc1cccc2cccnc12`
Result: label 1

Request: Field entry: O=C1CCCC2=C1C(c1c[nH]c3ccc(Br)cc13)Cc1cc(Br)ccc1N2 (stereo not given)
Result: label 1

Request: For `O=C(CSc1nnc(-c2ccc(Cl)cc2)n1-c1ccccc1)Nc1cccc(Cl)c1` then?
Result: label 0

Request: Query COC(=O)c1[nH]nc2c1C1(C(=O)c3cccc4cccc1c34)C(C#N)=C(N)O2 (stereo not given) next
Result: label 0

Request: Would you mind doing CC(O)c1cc2ccccc2c(=O)o1 (stereo not given) as well?
Result: label 0

Request: Would you mind doing `CNC(=O)c1cc(N2CCc3cc(NC(=O)Nc4ccc(Cl)c(C(F)(F)F)c4)ccc32)ccn1` as well?
Result: label 0
